- assay target: Mrp3 (ATP-binding cassette sub-family C member 3, ABCC3) (Rattus norvegicus)
- Sequence (O88563 whole entry): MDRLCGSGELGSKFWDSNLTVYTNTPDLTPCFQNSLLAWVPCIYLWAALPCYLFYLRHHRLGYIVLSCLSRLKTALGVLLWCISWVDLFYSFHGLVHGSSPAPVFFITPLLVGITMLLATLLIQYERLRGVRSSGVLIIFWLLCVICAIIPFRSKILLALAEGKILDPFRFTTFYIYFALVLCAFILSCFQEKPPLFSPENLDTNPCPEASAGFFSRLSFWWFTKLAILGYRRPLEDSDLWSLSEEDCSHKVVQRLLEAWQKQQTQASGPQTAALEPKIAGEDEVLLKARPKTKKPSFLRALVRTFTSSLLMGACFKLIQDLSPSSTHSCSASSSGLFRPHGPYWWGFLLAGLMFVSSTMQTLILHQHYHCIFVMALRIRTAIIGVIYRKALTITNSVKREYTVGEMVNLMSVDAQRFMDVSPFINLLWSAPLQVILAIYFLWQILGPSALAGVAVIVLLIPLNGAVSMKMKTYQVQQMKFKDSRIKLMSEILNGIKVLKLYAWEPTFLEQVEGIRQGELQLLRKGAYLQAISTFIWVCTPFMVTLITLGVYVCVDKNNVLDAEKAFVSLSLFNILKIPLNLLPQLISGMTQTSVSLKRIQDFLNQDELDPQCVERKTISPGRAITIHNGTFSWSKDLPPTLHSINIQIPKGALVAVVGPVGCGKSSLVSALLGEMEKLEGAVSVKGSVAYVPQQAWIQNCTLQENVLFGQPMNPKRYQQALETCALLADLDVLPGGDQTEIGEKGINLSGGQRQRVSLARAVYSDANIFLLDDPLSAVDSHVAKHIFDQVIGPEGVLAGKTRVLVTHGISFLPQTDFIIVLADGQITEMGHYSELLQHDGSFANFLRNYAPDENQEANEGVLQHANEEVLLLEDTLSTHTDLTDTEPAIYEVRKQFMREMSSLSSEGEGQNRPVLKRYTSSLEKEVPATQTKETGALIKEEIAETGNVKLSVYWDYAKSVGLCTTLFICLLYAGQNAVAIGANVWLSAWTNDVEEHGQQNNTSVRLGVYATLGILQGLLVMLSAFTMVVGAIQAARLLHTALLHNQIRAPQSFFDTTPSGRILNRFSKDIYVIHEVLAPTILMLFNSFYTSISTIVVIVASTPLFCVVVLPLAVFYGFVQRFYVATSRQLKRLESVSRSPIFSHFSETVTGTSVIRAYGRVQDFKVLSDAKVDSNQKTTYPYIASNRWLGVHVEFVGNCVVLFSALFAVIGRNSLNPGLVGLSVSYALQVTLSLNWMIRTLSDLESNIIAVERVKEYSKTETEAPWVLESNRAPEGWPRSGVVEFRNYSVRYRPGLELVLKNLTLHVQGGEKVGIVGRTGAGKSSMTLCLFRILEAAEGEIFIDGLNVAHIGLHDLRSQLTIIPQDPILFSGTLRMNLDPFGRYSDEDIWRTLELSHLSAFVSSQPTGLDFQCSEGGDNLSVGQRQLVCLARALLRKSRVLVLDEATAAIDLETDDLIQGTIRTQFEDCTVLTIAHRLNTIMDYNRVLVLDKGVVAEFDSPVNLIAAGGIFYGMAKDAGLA
- procedure summary: TP_TRANSPORTER: inhibition of F-MTX uptake (F-MTX: 5.0 uM, MK-571: 100.0 uM) in membrane vesicles from Mrp3-Sf9 cells
- Format: functional, cell membranes, Membrane vesicle
- Parameters: scale not given: the % may be the effect or the level left
- test settings: membrane vesicles from Mrp3-expressing Sf9 cells, probe F-MTX; read-out: Activity
experimental readout: activity at 100 µM (%)

>>> value_observed("CN(C)C(=O)CCSC(SCCC(=O)O)c1cccc(/C=C/c2ccc3ccc(Cl)cc3n2)c1 (stereo unspecified)")
4.9
